The measurements presented in this section are drawn from ChEMBL document CHEMBL1143732.

run_description: Inhibition of HIV integrase by MWPA-Mn enzymatic assay
Set-up: species or system Human immunodeficiency virus
pIC50: −log10 of the molar value.
Label Met for high-side pIC50 (at or above 7) and Not met for low-side pIC50 (below it).

Kindly determine if pIC50 recorded for `CN1CC(c2cc(OCc3ccc(F)cc3)ncn2)=C(O)C1=O` is above or exactly 7.
Not met

Same question for `CN1CC(c2cc(CCc3ccc(F)cc3)ncn2)=C(O)C1=O` please.
Not met

Same question for `CN1CC(c2ccc(Cc3ccc(F)cc3)cn2)=C(O)C1=O` please.
Met

Same question for `O=C(O)/C(O)=C/c1cc(OCc2ccc(F)cc2)ccn1` please.
Met

Same question for `NC(=O)/C(O)=C/c1cc(CCc2ccccc2)ncn1` please.
Not met

Same question for `CN1CC(c2ccc(Oc3ccc(F)cc3)cn2)=C(O)C1=O` please.
Met

Same question for `O=C(O)/C(O)=C/c1cc(CCc2ccccc2)ncn1` please.
Met

---

run_description: Inhibition of HIV integrase by MWPA-Mg enzymatic assay
Parameters: species or system Human immunodeficiency virus
Lab note: anything with IC50 below 0.5 µM is marked yes (1); values at 0.5 µM or higher are marked no (0).

Report whether reported IC50 is lower than 0.5 µM (strictly) for `NC(=O)/C(O)=C/c1cc(CCc2ccccc2)ncn1`
no (0)

Same question for `O=C(O)/C(O)=C/c1ccc(OCc2ccc(F)cc2)cn1` please.
yes (1)

Same question for `O=C(/C(O)=C/c1cc(CCc2ccccc2)ncn1)N1CCOCC1` please.
no (0)

Same question for `O=C1C(O)=C(c2cc(OCc3ccc(F)cc3)ncn2)CN1CCO` please.
yes (1)

Same question for `CC(C)N1CC(C(=O)c2ccc(Cc3ccc(F)cc3)o2)=C(O)C1=O` please.
yes (1)

Same question for `O=C(O)/C(O)=C/c1cc(CCc2ccccc2)ncn1` please.
no (0)

---

run_description: Inhibition of HIV integrase by MWPA-Mg enzymatic assay
Set-up: species or system Human immunodeficiency virus
pIC50: −log10 of the molar value.
Label class 1 for high-side pIC50 (at or above 7) and class 0 for low-side pIC50 (below it).

Kindly determine if pIC50 recorded for `O=C(O)/C(O)=C/c1ccc(Cc2ccc(F)cc2)cn1` is above or exactly 7.
class 0

Same question for `CN1CC(c2cc(CCc3ccc(F)cc3)ncn2)=C(O)C1=O` please.
class 0

Same question for `CNC(=O)/C(O)=C/c1cc(CCc2ccccc2)ncn1` please.
class 0

Same question for `COc1ccc(N2CC(C(=O)c3ccc(Cc4ccc(F)cc4)o3)=C(O)C2=O)cc1` please.
class 0

Same question for `O=C(O)/C(O)=C/c1ccc(Oc2ccc(F)cc2)cn1` please.
class 0

Same question for `COCCN1CC(c2cc(OCc3ccc(F)cc3)ncn2)=C(O)C1=O` please.
class 1

Same question for `O=C1NCC(c2cc(OCc3ccc(F)cc3)ncn2)=C1O` please.
class 1

Same question for `O=C(C1=C(O)C(=O)N(CCN2CCOCC2)C1)c1ccc(Cc2ccc(F)cc2)o1` please.
class 0

Same question for `CCCN1CC(c2cc(OCc3ccc(F)cc3)ncn2)=C(O)C1=O` please.
class 0

Same question for `CN1CC(c2ccc(OCc3ccc(F)cc3)cn2)=C(O)C1=O` please.
class 1

Same question for `CN1CC(c2ccc(Cc3ccc(F)cc3)cn2)=C(O)C1=O` please.
class 1

Same question for `O=C(O)/C(O)=C/c1cc(CCc2ccc(F)cc2)ccn1` please.
class 0

Same question for `O=C(C1=C(O)C(=O)N(Cc2ccccc2)C1)c1ccc(Cc2ccc(F)cc2)o1` please.
class 0
